# Test system: TK-10
# ASSAY_NAME: NCI 60 cell line screen
# Assay type: cell-based
# RUN_CONDITIONS: Homo sapiens; TK-10, Renal Cancer; read-out: Percent growth
activity at 10 µM for assorted compounds
Give a bare numeral; the unit % is implied.

O=S(=O)(NCCCNc1nccc(-n2cnc3ccccc32)n1)c1ccc(Br)cc1 [12k] :: 97.8

Can you share its activity at 10 µM? I mean this compound: O=S(=O)(NCCNc1nccc(-n2cnc3ccccc32)n1)c1ccccc1 [12a] 104

Returns the measured activity at 10 µM for the input compound. Input: Cc1ccc(S(=O)(=O)NCCNc2nccc(-n3cnc4ccccc43)n2)cc1 [12g] 83.7

If you can, please state the reported activity at 10 µM value of O=S(=O)(NCCCNc1nccc(-n2cnc3ccccc32)n1)c1ccc(F)cc1 [12i] . 91.9

Reported activity at 10 µM, compound O=S(=O)(NCCNc1nccc(-n2cnc3ccccc32)n1)c1ccc(Br)cc1 [12d] : ____ 103

// activity at 10 µM lookup, key: O=S(=O)(NCCCNc1nccc(-n2cnc3ccccc32)n1)c1cccc2ccccc12 [12n] 95.7

---

# reported activity at 10 µM; entries follow
# System: MOLT-4
# ASSAY_NAME: NCI 60 cell line screen
# Assay type: cell-based, human
# RUN_CONDITIONS: Homo sapiens; MOLT-4, Leukemia; read-out: Percent growth
# Protocol: Anticancer profiling over a panel of 60 cancer cell lines was carried out at the National Cancer Institute (NCI), Bethesda, Maryland, USA, https://dtp.cancer.gov/discovery_development/nci-60/methodology.htm (Last visit 22 September 2021), using the standard procedure (detailed procedure is located in the Supplementary Information page 50 s). NCI standard procedure for 60 cell lines assay […] Three dose response parameters are calculated for each experimental agent. […] (TGI) is calculated from Ti = Tz.
API: value field is a number in %; no unit string.

Worked cases, activity at 10 µM given:
O=S(=O)(NCCNc1nccc(-n2cnc3ccccc32)n1)c1ccc(Br)cc1 [12d] :: 95.9
O=S(=O)(NCCNc1nccc(-n2cnc3ccccc32)n1)c1ccc(F)cc1 [12b] :: 90.5
O=S(=O)(NCCCNc1nccc(-n2cnc3ccccc32)n1)c1ccccc1 [12h] :: 77.2
O=S(=O)(NCCCNc1nccc(-n2cnc3ccccc32)n1)c1ccc(C(F)(F)F)cc1 [12l] :: 38.4
O=S(=O)(NCCNc1nccc(-n2cnc3ccccc32)n1)c1ccc(Cl)cc1 [12c] :: 103
COc1ccc(S(=O)(=O)NCCNc2nccc(-n3cnc4ccccc43)n2)cc1 [12f] :: 93.3

Which value of activity at 10 µM has been reported for Cc1ccc(S(=O)(=O)NCCNc2nccc(-n3cnc4ccccc43)n2)cc1 [12g] in the records? 55.3

Please look up its activity at 10 µM: O=S(=O)(NCCCNc1nccc(-n2cnc3ccccc32)n1)c1cccc2ccccc12 [12n] 67

Could you tell me which activity at 10 µM is on file for O=S(=O)(NCCCNc1nccc(-n2cnc3ccccc32)n1)c1ccc(F)cc1 [12i] ? 33.2

---

# Test system: KM12
# ASSAY_NAME: NCI 60 cell line screen
# Format: cell-based, human
# RUN_CONDITIONS: Homo sapiens; KM12, Colon Cancer; read-out: Percent growth
# Experimental: Anticancer profiling over a panel of 60 cancer cell lines was carried out at the National Cancer Institute (NCI), Bethesda, Maryland, USA, https://dtp.cancer.gov/discovery_development/nci-60/methodology.htm (Last visit 22 September 2021), using the standard procedure (detailed procedure is located in the Supplementary Information page 50 s). NCI standard procedure for 60 cell lines assay […] Three dose response parameters are calculated for each experimental agent. […] (TGI) is calculated from Ti = Tz.
Reported activity at 10 µM values for the following compounds.
State just the number; it will be interpreted in %.

Examples with their reported activity at 10 µM follow.
O=S(=O)(NCCCNc1nccc(-n2cnc3ccccc32)n1)c1ccccc1 [12h] :: 71
O=S(=O)(NCCNc1nccc(-n2cnc3ccccc32)n1)c1ccc(F)cc1 [12b] :: 73.4
O=S(=O)(NCCCNc1nccc(-n2cnc3ccccc32)n1)c1ccc(C(F)(F)F)cc1 [12l] :: 51.7
O=S(=O)(NCCCNc1nccc(-n2cnc3ccccc32)n1)c1ccc(Br)cc1 [12k] :: 68.3
O=S(=O)(NCCCNc1nccc(-n2cnc3ccccc32)n1)c1ccc(F)cc1 [12i] :: 48.9

Item O=S(=O)(NCCCNc1nccc(-n2cnc3ccccc32)n1)c1ccc(Cl)cc1 [12j] has what recorded activity at 10 µM? 92

Need activity at 10 µM, item O=S(=O)(NCCNc1nccc(-n2cnc3ccccc32)n1)c1ccccc1 [12a] 100

Which activity at 10 µM reading was recorded for the compound COc1ccc(S(=O)(=O)NCCCNc2nccc(-n3cnc4ccccc43)n2)cc1 [12m] ? 84.1

Suppose we examine the compound COc1ccc(S(=O)(=O)NCCNc2nccc(-n3cnc4ccccc43)n2)cc1 [12f] ; what activity at 10 µM value has been reported? 93.2
